# credit: ChEMBL document CHEMBL5233275

method.summary: Octanol/water partition coefficient, logD of compound at pH 7.4 by HPLC analysis
Format: physicochemical
Where a SMILES comes first, the peptide text is derived from it. [ ]: non-standard residue; d: D form. NMeA = CN[C@@H](C)C(=O)O; dNMeA = CN[C@H](C)C(=O)O
readout.kind: logD
Lab note: jot the number down without any unit.

get_value(item= CC(C)C[C@@H]1NC(=O)[C@H](C)N(C)C(=O)[C@H]2CCCN2C(=O)[C@H](CC(C)C)NC(=O)[C@H](C)N(C)C(=O)[C@H](CC(C)C)NC(=O)[C@H](C)N(C)C(=O)[C@H]2CCCN2C(=O)[C@H]([C@@H](C)O)NC(=O)[C@H](C)N(C)C1=O , readout=logD) returns 2.6

get_value(item= CC(C)C[C@@H]1NC(=O)[C@H](Cc2ccccc2)N(C)C(=O)[C@H]2CCCN2C(=O)[C@H](CC(C)C)NC(=O)[C@H](C)N(C)C(=O)[C@H](CC(C)C)NC(=O)[C@H](Cc2ccccc2)N(C)C(=O)[C@H]2CCCN2C(=O)[C@H]([C@@H](C)O)NC(=O)[C@H](C)N(C)C1=O , readout=logD) returns 5.1

get_value(item= CC(C)C[C@@H]1NC(=O)[C@H](C)N(C)C(=O)[C@H]2CCCN2C(=O)[C@H](CC(C)C)NC(=O)[C@H](C)N(C)C(=O)[C@H]([C@@H](C)O)NC(=O)[C@H](C)N(C)C(=O)[C@H]2CCCN2C(=O)[C@H](CC(C)C)NC(=O)[C@H](C)N(C)C1=O , readout=logD) returns 2.7

get_value(item= CC(C)C[C@@H]1NC(=O)[C@H](C)N(C)C(=O)[C@H](CC(C)C)NC(=O)[C@H](C)N(C)C(=O)[C@@H](C)N(C)C(=O)[C@H](CC(C)C)NC(=O)[C@H](C)N(C)C(=O)[C@H](CC(C)C)NC(=O)[C@H](C)N(C)C(=O)[C@@H](C)N(C)C1=O (cyclo(L[NMeA]L[dNMeA][NMeA]L[NMeA]L[dNMeA][NMeA])) , readout=logD) returns 4.6
